Test system: murine NSCs in adhesion (Laminin coated dishes)
Assay: Phage biopanning (Ph.D.-7 library) against adhering NSCs
Type: binding
Conditions: consensus after three rounds of biopanning, internalized clones (IP)
assay.endpoint: %, internalized phage clones (%)
Hi! Could you send only the number? It should be in %, unit omitted.

Example substances with recorded %, internalized phage clones:
substance	%, internalized phage clones (%)
TPLSSHS (Prepared by synthesis) [heptapeptide domain found by phage biopanning against NSCs]	3.5
SSLSVND (Prepared by synthesis) [heptapeptide domain found by phage biopanning against NSCs]	10.7

[Q] Tell me measured %, internalized phage clones for YRMPIWP (Prepared by synthesis) [heptapeptide domain found by phage biopanning against NSCs] please.
[A] 3.5

[Q] Tell me measured %, internalized phage clones for QHLPRDH (Prepared by synthesis) [heptapeptide domain found by phage biopanning against NSCs] please.
[A] 14.2

[Q] Tell me measured %, internalized phage clones for LQAIPRN (Prepared by synthesis) [heptapeptide domain found by phage biopanning against NSCs] please.
[A] 3.5

[Q] Tell me measured %, internalized phage clones for SLPKLPP (Prepared by synthesis) [heptapeptide domain found by phage biopanning against NSCs] please.
[A] 3.5

----------
Test system: murine NSCs in adhesion (Laminin coated dishes)
Assay: Phage biopanning (Ph.D.-7 library) against adhering NSCs
Assay type: binding
Conditions: consensus after three rounds of biopanning, internalized clones (IP)
Measured %, internalized phage clones of individual entries
Hi! Could you send only the number? It should be in %, unit omitted.

Example substances with recorded %, internalized phage clones:
substance	assay.endpoint	unit.name	result.number
YIIPMHD (Prepared by synthesis) [heptapeptide domain found by phage biopanning against NSCs]	%, internalized phage clones	%	3.5
FAQRVPP (Prepared by synthesis) [heptapeptide domain found by phage biopanning against NSCs]	%, internalized phage clones	%	53.5

Shift focus to the following entry.
[Q] Tell me measured %, internalized phage clones for SASHWQI (Prepared by synthesis) [heptapeptide domain found by phage biopanning against NSCs] please.
[A] 3.5

----------
Measured %, eluted phage clones of individual entries
Tested on: murine NSCs in adhesion (Laminin coated dishes)
Assay: Phage biopanning (Ph.D.-7 library) against adhering NSCs
Format: binding
Conditions: consensus after three rounds of biopanning, cell membrane bound phages (MP)
Hi! Could you send only the number? It should be in %, unit omitted.

[Q] Tell me measured %, eluted phage clones for `TTTPTTP` please.
[A] 4.2

[Q] Tell me measured %, eluted phage clones for `LTTGSGS` please.
[A] 4.2

[Q] Tell me measured %, eluted phage clones for YIIPMHD (Prepared by synthesis) [heptapeptide domain found by phage biopanning against NSCs] please.
[A] 4.2

----------
Test system: murine NSCs in adhesion (Laminin coated dishes)
Assay: Phage biopanning (Ph.D.-7 library) against adhering NSCs
Format: binding
Settings: consensus after three rounds of biopanning, cell membrane bound phages (MP)
assay.endpoint: %, eluted phage clones
Lab note: write values as number then unit, every time.

Example substances with recorded %, eluted phage clones:
substance	result
TPPFAAW	4.2%
QHLPRDH (Prepared by synthesis) [heptapeptide domain found by phage biopanning against NSCs]	8.3%
FAQRVPP (Prepared by synthesis) [heptapeptide domain found by phage biopanning against NSCs]	62.5%
SSELVTH	4.2%
TAVNSDA	4.2%

[Q] Tell me measured %, eluted phage clones for SSLSVND (Prepared by synthesis) [heptapeptide domain found by phage biopanning against NSCs] please.
[A] 4.2%
